- system-tested: human RORγt LBD (Homo sapiens (Human))
- Sequence (P51449 258-518): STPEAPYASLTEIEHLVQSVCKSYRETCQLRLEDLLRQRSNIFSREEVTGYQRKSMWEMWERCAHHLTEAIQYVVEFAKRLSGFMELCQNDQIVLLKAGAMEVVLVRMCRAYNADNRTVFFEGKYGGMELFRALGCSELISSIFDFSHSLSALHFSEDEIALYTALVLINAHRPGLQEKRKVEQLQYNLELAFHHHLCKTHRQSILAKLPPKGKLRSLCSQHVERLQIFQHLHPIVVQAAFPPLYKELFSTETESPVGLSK
- assay-method-text: RORγt reporter assay (GAL4-RORγt LBD luciferase, HEK293T cells)
- Format: cell-based
- condition-summary: HEK-293T, read-out: RORγt reporter Assay, % inhibition @ 6 μM, 6 μM, HEK293T cells
metric-name: inhibition at 6 µM (%)
// units = %; emit number, no label

Requested field: inhibition at 6 µM. Item: Cn1cncc1C(O)(c1ccc(C(F)(F)F)nc1)c1ccc2nc(N3CCC3)c(Oc3ccc(Cl)cc3)c(Cl)c2c1 (single isomer, unassigned) [Example 30b] 103

Requested field: inhibition at 6 µM. Item: COc1nc2ccc(C(O)(c3ccc(Cl)cc3)c3cncn3C)cc2c(Cl)c1Oc1ccccc1 (stereo not drawn) [Example 15a] 83

Requested field: inhibition at 6 µM. Item: CCN(CC)c1nc2ccc(C(O)(c3ccc(C(F)(F)F)nc3)c3cncn3C)cc2c(C(F)(F)F)c1Oc1ccc(Cl)cc1 (single isomer, unassigned) [Example 27b] 92

Requested field: inhibition at 6 µM. Item: Cn1cncc1C(O)(c1ccc(Cl)cc1)c1ccc2nc(C#N)c(Oc3ccccc3)c(C#N)c2c1 (stereo not drawn) 97

Requested field: inhibition at 6 µM. Item: CCN(CC)c1nc2ccc(C(O)(c3ccc(OC)nc3)c3cncn3C)cc2c(Cl)c1Oc1ccccc1 (stereo not drawn) [Example 5a] 104

Requested field: inhibition at 6 µM. Item: CN(C)c1nc2ccc(C(O)(c3ccc(Cl)cc3)c3cncn3C)cc2c(Cl)c1Oc1ccccc1 (stereo not drawn) 94

Requested field: inhibition at 6 µM. Item: CCN(CC)c1nc2ccc(C(O)(c3ccc(C(F)(F)F)nc3)c3cncn3C)cc2c(C(F)(F)F)c1Oc1ccc(Cl)cc1 (stereo not drawn) [Example 27a] 89

Requested field: inhibition at 6 µM. Item: CCN(CC)c1nc2ccc(C(O)(c3ccc(C(F)(F)F)nc3)c3cncn3C)cc2c(Cl)c1Oc1ccccc1 (single isomer, unassigned) [Example 6b] 93

Requested field: inhibition at 6 µM. Item: Cn1cncc1C(O)(c1ccc(Cl)cc1)c1ccc2nc(Cl)c(Oc3ccccc3)c(Cl)c2c1 (stereo not drawn) 86

Requested field: inhibition at 6 µM. Item: CCN(CC)c1nc2ccc(C(O)(c3cccnc3)c3cccc(Cl)c3)cc2c(Cl)c1Oc1ccccc1 (stereo not drawn) 91

Requested field: inhibition at 6 µM. Item: CCN(CC)c1nc2ccc(C(O)(c3ccc(Cl)cc3)c3cncn3C)cc2c(C(F)(F)F)c1Oc1ccc(Cl)cc1 (stereo not drawn) 89

Requested field: inhibition at 6 µM. Item: CCOc1nc2ccc(C(O)(c3cccnc3)c3cccc(Cl)c3)cc2c(Cl)c1N(C)c1ccccc1 (stereo not drawn) 89

Reference source: patent US9303015B2
